# PROTOCOL TEXT: solvent given as SMILES
# EXPERIMENTAL CONDITIONS: in CC#N
Outcome: 1 for absorption maximum of at least 400 nm; 0 for anything lower.

[
  {
    "SMILES RECORD": "COc1cc(/C=C/c2nc3ccccc3o2)c(OC)cc1/C=C/c1nc(C)nc(/C=C/c2cc(OC)c(/C=C/c3nc4ccccc4o3)cc2OC)n1",
    "ASSIGNED CATEGORY": 1
  },
  {
    "SMILES RECORD": "Nc1nc2ccc(Br)cc2s1",
    "ASSIGNED CATEGORY": 0
  },
  {
    "SMILES RECORD": "O=Cc1cc(O)c(C=O)cc1O",
    "ASSIGNED CATEGORY": 1
  }
]

absorption maximum >= 400 nm for `Cc1cccc2cc3c(=O)n(C)c(=O)n(C)c3nc12` ? 0

Next: `COc1ccc(-c2cc3c(s2)c(-c2ccccc2)cc(=O)n3C)cc1` 0

Could you do the same for `[C-]#[N+]c1ccc(-c2ccc(N(C)C)cc2)cc1` , please? 0

Another compound to check: `C(/C=C/c1ccc(-n2c3ccccc3c3ccccc32)cc1)=C\c1ccncc1` 0
